test system: HAP1 MTAP-deleted cell line; assay: Viability assay, MTAP-deleted cell line; format: cell-based; settings: Homo sapiens, HAP1, viability assay, MTAP-deleted cell line; read-out: HAP1 MTAP deleted viability
pIC50: −log10 of the molar value.
I'd be grateful if you could share measured pIC50 for these entries.

Answer with reported pIC50 of CC(=O)Nc1ccc([C@@H]2CC[C@@H](C)CN2C(=O)C(=O)Nc2cncc(C(N)=O)c2)cc1 (single isomer, unassigned) [Compound 451] 5.00 to 6.00

Answer with reported pIC50 of Cc1cc(NC(=O)C(=O)N2C[C@H](C)CC[C@H]2c2ccc(-c3nccs3)cn2)cnc1N (racemic) [Compound 991] 5.00 to 6.00

Answer with reported pIC50 of CCc1cc(NC(=O)C(=O)N2C[C@@H](C)CC[C@@H]2c2ccc3sc(CCN(C)C4COC4)nc3c2)cnc1N [Compound 1195] > 6.00

Answer with reported pIC50 of CCc1cc(NC(=O)C(=O)N2C[C@@H](C)CC[C@@H]2c2ccc3sc(C(F)(F)F)nc3c2)cnc1N (single isomer, unassigned) [Compound 1022] > 6.00

Answer with reported pIC50 of C[C@@H]1CC[C@@H](c2ccc(F)cc2)N(C(=O)C(=O)Nc2cnc(OC(F)F)c(C(N)=O)c2)C1 (racemic) [Compound 889] < 5.00

Answer with reported pIC50 of Cc1cc(NC(=O)C(=O)N2CCCC[C@H]2c2ccc3[nH]ncc3c2)cnc1N (single isomer, unassigned) [Compound 518] > 6.00

Answer with reported pIC50 of Cc1cc(NC(=O)C(=O)N2C[C@H](C)CC[C@@H]2C2CCCCC2)cnc1N (racemic) [Compound 175] < 5.00

Answer with reported pIC50 of Cc1cc(NC(=O)C(=O)N2C[C@H](C)CC[C@H]2c2cccc3[nH]ccc23)cnc1N (single isomer, unassigned) [Compound 1035] > 6.00

###

target: PRMT5 (Homo sapiens, UniProt O14744); construct: purchased Viva (custom protein); test: PRMT5 biochemical IC50 assay with SAM as cofactor; conditions: PRMT5, SAM as cofactor; read-out: SAM IC50
Sequence (O14744 whole entry): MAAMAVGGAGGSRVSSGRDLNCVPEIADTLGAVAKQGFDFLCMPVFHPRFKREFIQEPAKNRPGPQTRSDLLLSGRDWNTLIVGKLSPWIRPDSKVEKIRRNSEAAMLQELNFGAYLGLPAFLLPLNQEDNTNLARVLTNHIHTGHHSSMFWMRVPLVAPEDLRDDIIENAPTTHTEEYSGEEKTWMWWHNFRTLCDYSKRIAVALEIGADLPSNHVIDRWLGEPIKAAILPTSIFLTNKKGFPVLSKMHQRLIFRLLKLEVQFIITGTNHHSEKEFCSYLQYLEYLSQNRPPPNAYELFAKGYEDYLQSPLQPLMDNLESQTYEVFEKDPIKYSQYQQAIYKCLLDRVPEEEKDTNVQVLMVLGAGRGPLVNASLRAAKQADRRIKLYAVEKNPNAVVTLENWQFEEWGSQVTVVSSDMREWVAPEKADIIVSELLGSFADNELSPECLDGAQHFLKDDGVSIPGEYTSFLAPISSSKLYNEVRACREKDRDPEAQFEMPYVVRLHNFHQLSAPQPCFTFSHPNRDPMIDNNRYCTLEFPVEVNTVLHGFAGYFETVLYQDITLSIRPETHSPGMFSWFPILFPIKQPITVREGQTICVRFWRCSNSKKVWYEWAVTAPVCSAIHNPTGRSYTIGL
Sequence (Q9BQA1 whole entry partner): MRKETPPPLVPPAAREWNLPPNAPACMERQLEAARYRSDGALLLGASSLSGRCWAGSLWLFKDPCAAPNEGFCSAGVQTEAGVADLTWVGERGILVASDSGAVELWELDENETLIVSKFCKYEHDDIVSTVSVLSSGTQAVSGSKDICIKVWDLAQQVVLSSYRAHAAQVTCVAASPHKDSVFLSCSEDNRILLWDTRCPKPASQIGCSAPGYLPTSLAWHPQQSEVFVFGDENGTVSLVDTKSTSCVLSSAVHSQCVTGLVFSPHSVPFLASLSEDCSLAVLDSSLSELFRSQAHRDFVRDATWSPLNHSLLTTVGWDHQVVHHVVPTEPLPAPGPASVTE
I'd be grateful if you could share measured IC50 for these entries.

Answer with reported IC50 of CC(=O)Nc1ccc([C@H]2CC[C@H](C)CN2C(=O)C(=O)Nc2cncc(C(N)=O)c2)cc1 (single isomer, unassigned) > 500 nM

Answer with reported IC50 of Cc1cc(NC(=O)C(=O)N2C[C@H]3CC[C@H](C3)[C@H]2c2cccs2)cnc1N (single isomer, unassigned) > 500 nM

Answer with reported IC50 of Cc1cc(NC(=O)C(=O)N2C[C@@H](C)[C@@H](C)C[C@H]2c2ccccc2)cnc1N (single isomer, unassigned) 50 to 500 nM

Answer with reported IC50 of C[C@H]1CC[C@H](c2cc(Cl)cc(Cl)c2)N(C(=O)C(=O)Nc2cncc(C(N)=O)c2)C1 (single isomer, unassigned) 50 to 500 nM

Answer with reported IC50 of Cc1c(NC(=O)C(=O)N2C[C@H](C)CC[C@H]2c2ccc(O)cc2)cnc(N)c1C (single isomer, unassigned) > 500 nM

Answer with reported IC50 of CC(=O)N1CCC(c2cccc([C@@H]3CC[C@@H](C)CN3C(=O)C(=O)Nc3cnc(N)c(C)c3)c2)CC1 (single isomer, unassigned) > 500 nM

###

molecular target: PRMT5 (Homo sapiens); construct: purchased Viva (custom protein); test: PRMT5 biochemical IC50 assay with MTA as cofactor; details: PRMT5, MTA as cofactor; read-out: MTA IC50
pIC50: −log10 of the molar value.
reportedMetric: pIC50

Answer with reported pIC50 of COc1ncc(NC(=O)C(=O)N2CCCCC2c2ccccc2)cc1C(N)=O (single isomer, unassigned) [Compound 199] 6.30 to 7.30

Answer with reported pIC50 of Cc1cc(NC(=O)C(=O)N2C[C@@H](C)CC[C@@H]2c2ccc3c(c2)CCNC3=O)cnc1N (single isomer, unassigned) [Compound 988] > 7.30

Answer with reported pIC50 of CC(=O)Oc1ccc([C@H]2CC[C@H](C)CN2C(=O)C(=O)Nc2cncc(C(N)=O)c2)cc1 (single isomer, unassigned) [Compound 604] 6.30 to 7.30

Answer with reported pIC50 of CC(=O)N1CCC(c2cccc(C3CCCCN3C(=O)C(=O)Nc3cnc(N)c(C)c3)c2)CC1 (single isomer, unassigned) [Compound 94] > 7.30

Answer with reported pIC50 of CCc1cc(NC(=O)C(=O)N2C[C@@H](C)CC[C@@H]2c2ccc(NC(C)=O)nc2)cnc1N (single isomer, unassigned) [Compound 925] > 7.30

Answer with reported pIC50 of CCc1cc(NC(=O)C(=O)N2C[C@@H](C)CC[C@@H]2c2ccc(CCN(C)C)cc2)cnc1N [Compound 1228] > 7.30

Answer with reported pIC50 of COc1ncc(NC(=O)C(=O)N2C[C@@H](C)CC[C@@H]2c2ccc(-c3cncs3)cc2)cc1C(N)=O (single isomer, unassigned) [Compound 842] < 6.30

Answer with reported pIC50 of Cc1cc(NC(=O)C(=O)N2CCCC[C@@H]2c2ccncc2)cnc1N (single isomer, unassigned) [Compound 50] > 7.30

Answer with reported pIC50 of Cc1cc(NC(=O)C(=O)N2C[C@@H](C)CC(F)(F)[C@@H]2c2ccc(F)cc2)cnc1N (racemic) [Compound 871] > 7.30

Answer with reported pIC50 of Cc1cc(NC(=O)C(=O)N2C[C@H](C)CC[C@H]2c2ccc(F)c(F)c2)cnc1N (single isomer, unassigned) [Compound 458] > 7.30

Answer with reported pIC50 of Cc1cc(NC(=O)C(=O)N2C[C@H](C)CC[C@H]2c2ccc(F)c3[nH]ncc23)cnc1N (racemic) [Compound 1019] 6.30 to 7.30

Answer with reported pIC50 of C[C@@H]1CC[C@@H](c2ccc(F)cc2)N(C(=O)C(=O)Nc2cnc(OC(F)(F)F)c(C(N)=O)c2)C1 (racemic) [Compound 818] 6.30 to 7.30

Answer with reported pIC50 of CCc1cc(NC(=O)C(=O)N2C[C@@H](C)CC[C@@H]2c2ccc3cn(C4CC(C)(C)N(C)C(C)(C)C4)nc3c2)cnc1N (racemic) [Compound 1295] > 7.30

Answer with reported pIC50 of COc1ncc(NC(=O)C(=O)N2C[C@H](C)CC[C@H]2c2ccc3[nH]c(=O)ccc3c2)cc1C(N)=O (single isomer, unassigned) [Compound 810] < 6.30

Answer with reported pIC50 of Cc1cc(NC(=O)C(=O)N2C[C@H](C(F)(F)F)CC[C@H]2c2ccccc2)cnc1N (racemic) [Compound 177] 6.30 to 7.30

Answer with reported pIC50 of C[C@H]1CC[C@H](c2cccc(Cl)c2)N(C(=O)C(=O)Nc2cnc(N)c(C3CC3)c2)C1 (single isomer, unassigned) [Compound 1119] > 7.30

Answer with reported pIC50 of COc1ncc(NC(=O)C(=O)N2C[C@H](C)CC[C@H]2c2ccc3cnccc3c2)cc1C(N)=O (single isomer, unassigned) [Compound 933] < 6.30

###

I'd be grateful if you could share measured IC50 for these entries.
target: PRMT5 (Homo sapiens); construct: purchased Viva (custom protein); assay: PRMT5 biochemical IC50 assay with MTA as cofactor; conditions: PRMT5, MTA as cofactor; read-out: MTA IC50

Answer with reported IC50 of CCc1cc(NC(=O)C(=O)N2[C@@H](c3ccc4sc(C5CCN(C)CC5)nc4c3)CCC[C@@H]2C)cnc1N [Compound 1395] < 50 nM

Answer with reported IC50 of C[C@@H]1CC[C@@H](c2ccc3[nH]ncc3c2)N(C(=O)C(=O)Nc2cnc(N)c(C3CC3)c2)C1 (single isomer, unassigned) [Compound 1361] > 500 nM

Answer with reported IC50 of CCc1cc(NC(=O)C(=O)N2C[C@@H](C)CC[C@@H]2c2ccc(OCCN(C)C)cc2)cnc1N [Compound 1292] < 50 nM

Answer with reported IC50 of NC(=O)c1cncc(NC(=O)C(=O)N2CCCCC2C2CCC(F)(F)CC2)c1 (centres unmarked) [Compound 170] 50 to 500 nM

Answer with reported IC50 of C[C@@H]1C[C@H](c2ccccc2)N(C(=O)C(=O)Nc2cncc(C(N)=O)c2)C[C@@H]1C (racemic) [Compound 229] 50 to 500 nM

Answer with reported IC50 of CC(=O)Nc1ccc([C@H]2CC[C@H](C)CN2C(=O)C(=O)Nc2cncc(C(N)=O)c2)cc1 (single isomer, unassigned) [Compound 452] > 500 nM

Answer with reported IC50 of CCc1cc(NC(=O)C(=O)N2C[C@@H](C)CC[C@@H]2c2ccc(N3CCN(C)CC3)nc2)cnc1N (single isomer, unassigned) [Compound 1103] < 50 nM

Answer with reported IC50 of Cc1cc(NC(=O)C(=O)N2C[C@@H](C)CC[C@@H]2c2ccc(NS(C)(=O)=O)cc2)cnc1C (single isomer, unassigned) [Compound 621] < 50 nM

Answer with reported IC50 of COc1ncc(NC(=O)C(=O)N2C[C@H](C)CC[C@H]2c2cc(Cl)cc(Cl)c2)cc1C(N)=O (single isomer, unassigned) [Compound 965] > 500 nM

Answer with reported IC50 of CCc1cc(NC(=O)C(=O)N2C[C@@H](C)CC[C@@H]2c2ccc3[nH]ncc3c2)cnc1N (single isomer, unassigned) [Compound 589] < 50 nM

Answer with reported IC50 of Cc1cc(NC(=O)C(=O)N2C[C@@H](C)CC[C@@H]2c2cn[nH]c2)cnc1N (single isomer, unassigned) [Compound 941] < 50 nM

Answer with reported IC50 of C[C@@H]1CC[C@@H](c2ccc3cncn3c2)N(C(=O)C(=O)Nc2cnc(N)c(C3CC3)c2)C1 (single isomer, unassigned) [Compound 1336] > 500 nM

Answer with reported IC50 of Cc1cc(NC(=O)C(=O)N2C[C@@H](C)CC[C@@H]2c2ccc(C(F)(F)F)c(Cl)c2)cnc1N (single isomer, unassigned) [Compound 703] < 50 nM

Answer with reported IC50 of Cc1ccc([C@@H]2CC[C@@H](C)CN2C(=O)C(=O)Nc2cncc(C(N)=O)c2)cc1Cl (racemic) [Compound 179] < 50 nM

Answer with reported IC50 of C[C@@H]1CC[C@@H](c2ccc(Cl)c(N)c2)N(C(=O)C(=O)Nc2cncc(C(N)=O)c2)C1 (racemic) [Compound 280] < 50 nM

Answer with reported IC50 of Cc1cc(NC(=O)C(=O)N2C[C@@H](C)CC[C@@H]2c2cccc(N(C)C)c2)cnc1N (single isomer, unassigned) [Compound 387] > 500 nM

Answer with reported IC50 of Cc1cc(NC(=O)C(=O)N2CCCCC2C2CCC2)cnc1N (centres unmarked) [Compound 182] < 50 nM

Answer with reported IC50 of Cc1cc(NC(=O)C(=O)N2CCCC[C@H]2C2CCCCC2)cnc1N (single isomer, unassigned) [Compound 34] > 500 nM

Answer with reported IC50 of Cc1cncc(NC(=O)C(=O)N2CC(C)CC[C@@H]2c2cccc(F)c2)c1 (single isomer, unassigned) [Compound 84] > 500 nM

Answer with reported IC50 of C[C@@H]1CC[C@@H](c2ccc(NS(C)(=O)=O)cc2)N(C(=O)C(=O)Nc2cncc(C(N)=O)c2)C1 (single isomer, unassigned) [Compound 469] > 500 nM
